Measurement Target: PAK5 (Homo sapiens)
Sequence (Q9P286 whole entry): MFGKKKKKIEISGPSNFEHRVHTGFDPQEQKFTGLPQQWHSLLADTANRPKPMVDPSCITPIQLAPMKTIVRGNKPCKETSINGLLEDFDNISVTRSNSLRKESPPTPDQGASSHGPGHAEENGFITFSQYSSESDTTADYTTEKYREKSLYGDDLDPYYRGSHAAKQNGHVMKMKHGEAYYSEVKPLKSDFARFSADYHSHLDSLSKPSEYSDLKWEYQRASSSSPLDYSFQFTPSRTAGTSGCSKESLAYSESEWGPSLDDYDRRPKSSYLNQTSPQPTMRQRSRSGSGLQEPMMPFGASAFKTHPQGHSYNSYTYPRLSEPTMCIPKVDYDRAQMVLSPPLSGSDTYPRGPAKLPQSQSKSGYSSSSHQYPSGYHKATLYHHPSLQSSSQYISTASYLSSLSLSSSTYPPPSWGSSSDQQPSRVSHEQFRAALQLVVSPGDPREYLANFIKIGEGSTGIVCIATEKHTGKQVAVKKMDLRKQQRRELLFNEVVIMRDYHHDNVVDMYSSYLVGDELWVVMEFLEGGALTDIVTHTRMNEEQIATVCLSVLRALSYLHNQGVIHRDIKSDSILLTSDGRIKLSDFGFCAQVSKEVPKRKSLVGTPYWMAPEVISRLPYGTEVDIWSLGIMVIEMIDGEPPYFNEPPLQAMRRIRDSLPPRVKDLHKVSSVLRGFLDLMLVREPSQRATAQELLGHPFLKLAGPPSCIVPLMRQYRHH
Assay Overview: Kinase profiling PAK5
Type: biochemical
Condition Set: 100 micromolar inhibitor concentration; 100 is no change
# label = 1.0 if residual kinase activity, PAK5 >= 90 else 0.0

Some solved entries appear below for comparison.
Task: Dear colleague, could you confirm whether `O=C(Nc1nc2ccc(O)cc2s1)c1ccncc1` has residual kinase activity, PAK5 at or above 90?
Result: 0.0

Task: Does the molecule `CC(=O)Nc1nc2cc(C)ccc2s1` have recorded residual kinase activity, PAK5 that is 90 or more?
Result: 1.0

Task: Could you please find out whether `O=C(Nc1nc2cc(O)ccc2s1)c1cccnc1` has residual kinase activity, PAK5 that meets 90 or exceeds it?
Result: 1.0

Task: Hello, I need to know if `CC(=O)Nc1nc2ccccc2s1` has measured residual kinase activity, PAK5 not below 90. Thanks!
Result: 0.0

Task: API: above_or_equal(metric=residual kinase activity, PAK5, cutoff=90) for item `O=C(Nc1nc2ccc(O)cc2s1)c1ccccc1`
Result: 0.0

Continuing:
Task: State whether the measured residual kinase activity, PAK5 reaches 90, counting equality as reaching it, for `O=C(Nc1nc2ccc(O)cc2s1)c1ccccn1`
Result: 1.0

Task: I'd appreciate it if you could say whether `O=C(Nc1nc2cc(O)ccc2s1)c1ccccn1` has residual kinase activity, PAK5 at least equal to 90.
Result: 0.0
